Give binding signal for every item shown.
Target: T1, UNK ZnF1-3 (human, UniProt Q9C0B0 31-174)
T1 sequence: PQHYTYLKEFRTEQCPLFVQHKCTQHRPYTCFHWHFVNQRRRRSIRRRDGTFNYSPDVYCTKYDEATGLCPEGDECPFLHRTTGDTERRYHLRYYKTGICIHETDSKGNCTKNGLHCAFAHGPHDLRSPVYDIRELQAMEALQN
Test: nsRBNS (natural sequence RNA bind-n-seq); RBNS binding buffer (assumed for nsRBNS): 25 mM Tris pH 7.5, 150 mM KCl, 3 mM MgCl2, 0.01% Triton X-100, 500 ug/ml BSA, 20 U/ml SUPERase-In, 4 C; UNK is unkempt and MSI1 is Musashi-1; names of the RNAs are library labels; protein concentration not given here; high values mean tight binding
Over roughly 24,000 sequences, “enrichment r” has its median near 0.99; the highest 2% begin near 3.7. The entries come from a sample that favours the highest values as a whole.
Put down the number, then write its unit next to it.

Exercise: Requested field: binding signal. Item: chr2:55200753:55200754:-_ENSG00000115310_ENST00000317610|hu_mus|FALSE|FALSE (ssRNA) RNA: GGGAGUUCUACAGUCCGACGAUCUUGGAUUUUGGCCAUGGCAUCCUUAACGCUCUUGUUUGCAAGUCCUAGAUAAUGAUCUAUCUGCGCCUGAUGCCGUUCAUAUAUAACAGGAAUACUGAAGAGUGAGAUCAGAGCUAAAAUCAACAGAGGAUUGAGCAUCA
Key: 1.23 enrichment R

Exercise: Requested field: binding signal. Item: chr3:100438856:100438857:+_ENSG00000114354_ENST00000490574|hu_hu|motif|central (ssRNA) RNA: GGGAGUUCUACAGUCCGACGAUCAACAAAUAAUGUCAGUUUCAGUAUCCUACUGCACUGAAUUGCAAAGGAAAGGUCAGAACGGUCAAAAAUUGUUAUAAGAUCUCCAUCUUCAUCUUUAUACUUUAUUGUUACUUCAUCAUUCAACAGAGGAUUGAGCAUCA
Key: 0.76 enrichment R

Exercise: Requested field: binding signal. Item: chr5:145543945:145543946:-_ENSG00000133706_ENST00000545646|hu_hu|hu_hu_hu_mus_True|38_98 (ssRNA) RNA: GGGAGUUCUACAGUCCGACGAUCCUGAACGGCCAGUGGCGGGAAAUAAUCAAGCCAGUGCUCUGCUUCAGAAAACUUCACUAUGUCGUCAUCAGAGAGGCCAAGGGAUUUCAUAAUGUCCCACUGGUACUUAGAAGAUCCUGCCAACAGAGGAUUGAGCAUCA
Key: 1.21 enrichment R

Exercise: Requested field: binding signal. Item: chr17:56552419:56552420:-_ENSMUSG00000013236_ENSMUST00000086828|mus_mus|mus_mus_mus_hu_False|1_18 (ssRNA) RNA: GGGAGUUCUACAGUCCGACGAUCAAAAAAUACACUAUUUAAAAAAAAUGAAAUGUCACGGGAUACAGUUACACUGAGAGUUUUAAAAGAAAGCUGGAUUCUGGUCCCAGCCCAGUGGCAGGCAGGGGCAGAGCGGGGCAGAGGCAACAGAGGAUUGAGCAUCA
Key: 3.35 enrichment R

Exercise: Requested field: binding signal. Item: chr17:56552419:56552420:-_ENSMUSG00000013236_ENSMUST00000086828|mus_mus|mus_mus_mus_hu_False|18_18 (ssRNA) RNA: GGGAGUUCUACAGUCCGACGAUCAAAAAAUACACUAUUUAAAAAAAAUGAAAUGUCACGGGAUACAGUUACACUGAGAGUUUUAAAAGAAAGCUGGAUUCUGGUCCCAGCCCAGUGGCAGGCAGGGGCAGAGCGGGGAGGAGCCAACAGAGGAUUGAGCAUCA
Key: 3.38 enrichment R

Exercise: Requested field: binding signal. Item: chr6:31461392:31461393:+_ENSMUSG00000025609_ENSMUST00000026699|mus_mus|motif|central (ssRNA) RNA: GGGAGUUCUACAGUCCGACGAUCACCUGACGGACACUAGAGGCUUUGGAUAACCAUGUCAUUUCAACAGUAAGACAAACGGUAGAGACAACCCCCACAGUCAAAAACCACAUAUAAAAAUUAGAAUUUGCUUAAUACAGAAAACAACAGAGGAUUGAGCAUCA
Key: 3.37 enrichment R

Exercise: Requested field: binding signal. Item: chr17:56552419:56552420:-_ENSMUSG00000013236_ENSMUST00000086828|mus_mus|mus_mus_mus_hu_False|18_58 (ssRNA) RNA: GGGAGUUCUACAGUCCGACGAUCAAAAAAUACACUAUUUAAAAAAAAUGAAAUGUCACGGGAUACAGUUACACUGACACUAUUAAAAGAAAGCUGGAUUCUGGUCCCAGCCCAGUGGCAGGCAGGGGCAGAGCGGGGAGGAGCCAACAGAGGAUUGAGCAUCA
Key: 5.2 enrichment R

Ref: paper PMC12136788
